Values were extracted from patent US12588678B2.

- System: Tetranychus cinnabarinus mite larvae
- Protocol text: Larvicidal activity test, dipping method on bean seedling leaves
- Format: in vivo
- Experimental conditions: Tetranychus cinnabarinus, 96 h, read-out: mortality of mite larvae (%), 0.01 mg/L; checked after 4 days
- Text: The assay examples are used to illustrate the acaricidal activity against Tetranychus cinnabarinus (mortality of mite larvae and mortality of mite eggs) of the compounds having the structure represented by formula (I), and the results are shown in tables 1 to 9, where mortality of mite larvae % =(number of dead mite larvae applied/total number of mite larvae applied)×100, and mortality of mite eggs %= (number of dead mite eggs applied/total number of mite eggs applied)×100. […]
Parameter measured: mortality at 0.01 µg/mL (%)
Respond numerically; units are % and should not be typed.

### Prompt // lookup mortality at 0.01 µg/mL for Fc1cccc(F)c1C1=NC(c2ccc(COc3ccc(Cl)cc3)cc2)CO1 (centres unmarked)
### Response 30

### Prompt Could you share which mortality at 0.01 µg/mL value was measured for CC(C)(C)c1ccc(S(=O)(=O)Oc2ccc(C3COC(c4c(F)cccc4F)=N3)cc2)cc1 (centres unmarked) ?
### Response 35

### Prompt Entry under review: Fc1cccc(F)c1C1=NC(c2ccc(COc3ccc4ccccc4c3)cc2)CO1 (centres unmarked) . Reported mortality at 0.01 µg/mL?
### Response 50

### Prompt If you can, please state the reported mortality at 0.01 µg/mL value of Fc1cccc(F)c1C1=NC(c2ccc(Cn3ccc4ccccc43)cc2)CO1 (centres unmarked) .
### Response 35

### Prompt Tell me the measured mortality at 0.01 µg/mL of CCOc1cc(C(C)(C)C)ccc1C1COC(c2c(F)cccc2F)=N1 (centres unmarked) [Etoxazole, reference compound] , please.
### Response 30

### Prompt # query: mortality at 0.01 µg/mL of entry Fc1cccc(F)c1C1=NC(c2ccc(COCC(F)(F)F)cc2)CO1 (centres unmarked)
### Response 65

### Prompt Give the measured mortality at 0.01 µg/mL of O=C1c2ccccc2C(=O)N1Cc1ccc(C2COC(c3c(F)cccc3F)=N2)cc1 (centres unmarked) .
### Response 40

### Prompt May I ask what mortality at 0.01 µg/mL has been recorded for Cc1cccc2ccn(Cc3ccc(C4COC(c5c(F)cccc5F)=N4)cc3)c12 (centres unmarked) ?
### Response 45

### Prompt Fill blank: measured mortality at 0.01 µg/mL of the compound CCCOCc1ccc(C2COC(c3c(F)cccc3F)=N2)cc1 (centres unmarked) is ____.
### Response 70

### Prompt Which mortality at 0.01 µg/mL reading was recorded for the compound C=C(C)COCc1ccc(C2COC(c3c(F)cccc3F)=N2)cc1 (centres unmarked) ?
### Response 45

### Prompt Query (compound): CCOCc1ccc(C2COC(c3c(F)cccc3F)=N2)cc1 (centres unmarked) ; field requested: mortality at 0.01 µg/mL
### Response 50
